test system: MOLT-4; assay: NCI tumour cell line growth inhibition, 48 h
Calls of active or inactive are those of the source. Cut-off read from the data, not from the text of the source: active = GI50 up to about 1.1 µM and inactive = higher.
assay.readout: GI50

Here's what some known entries look like.
compound	GI50
Cc1nnc([C@@]2(C)CC[C@H]3[C@@H](CC=C4C[C@@H](O)CC[C@@]43C)[C@@H]2CC#N)o1	> 100 µM (inactive)
CN(C)c1ccc(/C=C(\C#N)C(=O)c2ccccc2)cc1Br	36.2 µM (inactive)
Fc1ccccc1C1CC(c2ccc3ccccc3c2)=Nc2ccccc2S1 (stereo not given)	> 100 µM (inactive)
Cc1cc(S(N)(=O)=O)c(SCc2nc(N)nc(N(C)C)n2)cc1Cl	> 10 µM (inactive)

Problem: Requested read-out: GI50. Entry: O=S(=O)(c1ccccc1)C1CC(c2nc3ccccc3[nH]2)=NO1 (stereo not given)
Result: 39.1 µM (inactive)

Problem: Requested read-out: GI50. Entry: CCOC1NC(=O)c2ccccc21 (stereo not given)
Result: > 100 µM (inactive)

Problem: Requested read-out: GI50. Entry: "c1ccc(C(Oc2noc3ccccc23)c2ccccc2)cc1"
Result: 14.8 µM (inactive)

Problem: Requested read-out: GI50. Entry: CCOC(=O)[C@@H]1ON2OC(OC3CCCC3(c3ccccc3)c3ccccc3)C(OC(C)=O)[C@H]3OC(=O)[C@@H]1C32 (stereo not given in full)
Result: 43.3 µM (inactive)

Problem: Requested read-out: GI50. Entry: COc1cccc(C2c3cc4c(cc3OC(C)(N3CCCC3)C2C)OCO4)c1OC (stereo not given)
Result: 5.11 µM (inactive)

Data origin, for the record: ChEMBL document CHEMBL1201862
